The measurements presented in this section are drawn from ChEMBL document CHEMBL1201862.

- System: COLO 205
- METHOD: NCI tumour cell line growth inhibition, 48 h
Calls of active or inactive are those of the source. No stated cut-off is given here; in the data, active = GI50 up to about 1.1 µM and inactive = higher.
OUTCOME_MEASURE: GI50

Prompt line: Tell me reported GI50 for CC1(C)N=c2c(ncn2Cc2ccccc2)=C(C(N)=O)N1 , tested with COLO 205.
Response line: > 100 µM (inactive)

Prompt line: Tell me reported GI50 for OCC1OC(n2cnc3c(Cl)nc(Nc4ccccc4)nc32)CC1O (stereo unspecified) , tested with COLO 205.
Response line: > 100 µM (inactive)

Prompt line: Tell me reported GI50 for COc1ccc(NC(=O)/C(=C/c2ccccc2)C(C)=O)cc1 , tested with COLO 205.
Response line: 19.1 µM (inactive)
